Tested on: purified A/PR/8/34
test.settings: Example 6, Table 4
No end group written: not given here.
property.measured: pEC50
Formally, pEC50 is defined as -log10 of the concentration c, with c in mol/L.

RRKKAAVALLPAVLLALLAP [EB, reference compound] has a reported pEC50 of 5.70

====

Tested on: purified A/PR/8/34
test.settings: 0.1-10 μM peptide, 64 HA units purified PR/8; estimated from dose response curves (Table 3)
pEC50: −log10 of the molar value. No end group written: not given here.
# pEC50 >= 6 gives 1, anything below gives 0

Hi team, for RRKKAAVALLPAVLLALLAP [EB, reference compound] , is the recorded pEC50 at or above 6? 0

Hi team, for RRKKVALLPAVLLALLAP [SEQ. ID. NO: 19, RRKKVALLPAVLLALLAP] , is the recorded pEC50 at or above 6? 1

Hi team, for RRKKAAVALLPAVLLALL [SEQ. ID. NO: 3, RRKKAAVALLPAVLLALL] , is the recorded pEC50 at or above 6? 1

Hi team, for RRKKAAVALLAVLLALLA [SEQ. ID. NO: 43, RRKKAAVALLAVLLALLA] , is the recorded pEC50 at or above 6? 0

Hi team, for RRKKAAVALLPAVLLALLA [SEQ. ID. NO: 2, RRKKAAVALLPAVLLALLA] , is the recorded pEC50 at or above 6? 1

Attribution: patent US8129499B2
